The origin of these recorded values is a melting point compilation (Tetko et al.; mined from patent text by program, amines drawn as free bases though some values may be those of a salt).

Listed compounds paired with reported melting point
property measured: melting point

- compound: "C[C@]12CC[C@H](O)CC1=CCC1C2CC[C@@]2(C)C1CC[C@@H]2c1cn(Cc2ccccc2)nn1 (some centres undefined)"
  property measured: "melting point"
  observed result: "286 to 287 °C"
- compound: "CC(=O)OCC1OC(n2cc(C3=C(c4c[nH]c5ncccc45)C(=O)N(COCc4ccccc4)C3=O)c3ccccc32)C(OC(C)=O)C(OC(C)=O)C1OC(C)=O (centres undefined)"
  property measured: "melting point"
  observed result: "115 to 117 °C"
- compound: "O=Cc1cc(Cl)cc(C=O)n1"
  property measured: "melting point"
  observed result: "163 °C"
- compound: "Cc1ccc(-c2nc(C(F)(F)F)nc(Cl)c2-c2ccccc2)cc1"
  property measured: "melting point"
  observed result: "97 to 100 °C"

====

property measured: melting point

- compound: "C(=C\\c1cc(/C=C/c2ccccc2OCc2ccccn2)[nH]n1)/c1ccc2[nH]ccc2c1"
  observed result: "220 to 223 °C"
- compound: "CN(C)CCc1c[nH]c2ccc(CCC(=O)NCc3ccc(NS(C)(=O)=O)cc3)cc12"
  observed result: "78 to 82 °C"
- compound: "O=C(O)C1CCc2c(c3ccccc3n2C(=O)c2cccs2)C1 (stereo not given)"
  observed result: "180 to 182 °C"
- compound: "CCN(CC)C(=O)n1cc(C(F)F)c(S(=O)(=O)c2cccc(Cl)c2)n1"
  observed result: "86 to 88 °C"
- compound: "COCCOc1cc(-c2ccccn2)nc(-c2ccccn2)c1"
  observed result: "105 to 106 °C"
- compound: "CC(Oc1ccc(Oc2ccc(C(F)(F)F)cc2)cc1)C(=O)OCS(C)(=O)=O (stereo not given)"
  observed result: "87 to 88 °C"
- compound: "COc1cc2c(cc1-c1ccoc1)C(=CNc1ccc(N3CCN(C)CC3)cc1)C(=O)NC2=O"
  observed result: "198 to 220 °C"
- compound: "S=C(Nc1cccc(Cl)c1)N1CCOC1C1CCCCC1 (stereo not given)"
  observed result: "117 to 119 °C"
- compound: "Cc1cc(COc2nn3c(-c4ccccc4F)nnc3cc2C2CCC2)no1"
  observed result: "150 °C"
- compound: "CC(=O)CCC1(C(N)=O)c2ccccc2-c2ccccc21"
  observed result: "125 to 128 °C"

====

property measured: melting point

- compound: "CON(C)C(=O)[C@@H](Cc1ccc(OCc2ccccc2)cc1)NC(=O)OC(C)(C)C"
  property measured: "melting point"
  observed result: "107 to 109 °C"
- compound: "O=C(O)COc1c(Br)cc(-c2cccc3sc4ccccc4c23)cc1Br"
  property measured: "melting point"
  observed result: "212 to 213 °C"
- compound: "O=C(Cc1ccc(Cl)cc1)NCc1cccc2c1C(=O)N(C1CCC(=O)NC1=O)C2=O (stereo not given)"
  property measured: "melting point"
  observed result: "243 to 245 °C"
- compound: "CCCCCNC1=CC(=O)c2c(OC)ccc(OC)c2C1=O"
  property measured: "melting point"
  observed result: "102 to 103 °C"
- compound: "CCc1ccc(CCc2ccc(-c3ccc(OC(F)F)cc3)cc2)cc1"
  property measured: "melting point"
  observed result: "131 °C"
- compound: "CC(C)(C)C(=O)OCn1cnc2c(OCc3ccccc3)nc(N)nc21"
  property measured: "melting point"
  observed result: "161 to 162 °C"
- compound: "CN(C(=N)Nc1ncccc1OCc1c(F)cccc1F)c1ccc(Cl)cc1"
  property measured: "melting point"
  observed result: "100 to 102 °C"
- compound: "O=c1[nH]c2ccc(-c3ncc[nH]3)cc2[nH]c1=O"
  property measured: "melting point"
  observed result: "> 300 °C"
- compound: "CCC(=CC(CNC(=O)c1cccnc1O)=NO)C(C)[N+](=O)[O-] (stereo not given)"
  property measured: "melting point"
  observed result: "92 to 95 °C"
- compound: "COc1ccc(C2CNCc3c(OC)cccc32)cc1OC (stereo not given)"
  property measured: "melting point"
  observed result: "106 to 112 °C"

====

Listed compounds paired with reported melting point

- compound: "NNC(=S)c1cc(F)c2ncc(C(=O)NCc3ccc(Cl)cc3)c(O)c2c1"
  melting point: "317 to 319 °C"
- compound: "O=C(Nc1cccc(Cl)c1)N1CCc2cc(S(=O)(=O)N3CCN(c4cccc(Cl)c4)CC3)ccc21"
  melting point: "190 °C"
- compound: "COC(=O)c1cc(-c2nnn(Cc3ccc(OC)cc3)n2)ccc1OC"
  melting point: "110 to 111 °C"
- compound: "CN(C)/C=C/C(=C(C#N)C#N)c1ccc2cc(N(C)C)ccc2c1"
  melting point: "213 to 215 °C"
- compound: "CCCCc1ncc(C=O)n1Cc1ccc(C(=O)OC)c2ccccc12"
  melting point: "95.5 to 97 °C"
- compound: "CNC(=S)C(OC)c1ccccn1 (stereo not given)"
  melting point: "104 to 105 °C"
- compound: "Cc1ccc2c(c1Cl)C(=O)N(C(C)(C(N)=O)C(C)C)C2=O (stereo not given)"
  melting point: "215 to 218 °C"
- compound: "O=Cc1cc(Br)c(Cl)cc1[N+](=O)[O-]"
  melting point: "81 to 82 °C"
- compound: "NCCc1ccc(N2C(=O)N(c3ccc(Cl)cc3Cl)Cc3cnc(Nc4ccccc4)nc32)cc1"
  melting point: "117 to 121 °C"
- compound: "Cc1ccccc1-c1cccc(C(=O)O)c1"
  melting point: "127 °C"
- compound: "CCOC(=O)c1c(-c2ccc(F)cc2)c2ccccn2c1C(C)C"
  melting point: "99 to 100 °C"
- compound: "O=C1CN(Cc2cnc(-c3ccc(C(CC4CCOCC4)c4ccc(S(=O)(=O)C5CC5)cc4)[nH]3)s2)C(=O)N1 (stereo not given)"
  melting point: "184 to 185 °C"
- compound: "Cc1c(C(=O)O)c(=O)c(Br)c(-c2ccccc2)n1C"
  melting point: "257 to 258 °C"
- compound: "Cc1nnc(N2N=C(c3ccc([N+](=O)[O-])cc3)c3cc4c(cc3CC2C)OCO4)s1 (stereo not given)"
  melting point: "101 to 102 °C"
- compound: "O=C1NC(=O)C(c2ccc(N=Cc3ccc(Cl)c(Cl)c3)cc2)S1 (stereo not given)"
  melting point: "216 to 218 °C"
- compound: "COc1ccc(-c2c(NC(=O)Nc3ccc(F)cc3F)cnc3ccc(Cl)cc23)c(OC)c1OC"
  melting point: "120 to 122 °C"
- compound: "Cc1cn(Cc2cc(C)c3c(c2)-c2[nH]nc(-c4ccsc4)c2C3)cn1"
  melting point: "240 to 242 °C"
- compound: "CSc1ccc(-c2nn(Cc3ccccc3)c(=O)cc2-c2ccc(F)cc2)cc1"
  melting point: "141 °C"
- compound: "O=C(O)c1cccc(NC(=O)c2sc3c([N+](=O)[O-])c(O)c(O)cc3c2Cl)c1"
  melting point: "293 to 294 °C"
- compound: "Cn1c(=O)c(C(=O)NC2CCCCC2)c(O)c2ccccc21"
  melting point: "145 °C"

====

property measured: melting point

- molecule: "CC(=O)NCC(C)n1nnnc1S (stereo unspecified)"
  property measured: "melting point"
  observed result: "176 to 178 °C"
- molecule: "COc1cc(C(C)O)c([N+](=O)[O-])cc1OC (stereo unspecified)"
  property measured: "melting point"
  observed result: "107 to 108 °C"
- molecule: "CC(C)(C)C(=O)c1ccc(C(=O)NC(=O)CCc2ccccc2)cc1"
  property measured: "melting point"
  observed result: "137 to 138 °C"
- molecule: "O=c1[nH]c(CSCc2ccccc2)nc2nccnc12"
  property measured: "melting point"
  observed result: "224 to 226 °C"
- molecule: "CCCCCCCCc1ccc(C(=O)CCCCCC(=O)OCC)cc1"
  property measured: "melting point"
  observed result: "38 to 40 °C"
- molecule: "COC(=O)/C=C/COc1cc(-n2ncc(C(F)(F)F)c(C)c2=O)c(F)cc1Cl"
  property measured: "melting point"
  observed result: "153 °C"
- molecule: "CC(C)(C)C(=O)C(=Cn1ccnc1)Oc1ccc(Cl)cc1"
  property measured: "melting point"
  observed result: "94 to 95 °C"
- molecule: "CC(=O)Oc1ccc(C(=O)c2cccc(C(=O)O)c2)cc1"
  property measured: "melting point"
  observed result: "190 to 193 °C"
- molecule: "COc1ccc(N)c(CCc2cc(OC)ccc2N)c1"
  property measured: "melting point"
  observed result: "69 to 71 °C"
- molecule: "CCN1CCN(c2nc(-c3ccccc3)nc3sc(C#N)c(C)c23)CC1"
  property measured: "melting point"
  observed result: "178 to 179 °C"
- molecule: "Cc1cc2[nH]c3ccncc3c(=O)n2n1"
  property measured: "melting point"
  observed result: "> 300 °C"
